TARGET DESC: human Nav1.6 ion channels (Homo sapiens)
Construct: host or cells: CHO
ASSAY METHOD TEXT: IonWorks electrophysiological assay on CHO cells expressing human Nav1.6
Format: cell-based
CONDITION PARAMETERS: inactivated state inhibition (Pulse 2), CHO human Nav1.6 expressing cells, read-out: Nav1.6 Inactivated
READOUT: pIC50
Scale: negative log10 of molar concentration, which is what pIC50 denotes.

For this molecule ( COC1CCN(C(=O)C2CCN(Cc3cccc(Oc4ccccc4)c3)C2)C1 (racemic) [Example 33] ), measured pIC50 is 5.82

For this molecule ( CC1(C(=O)NCc2ccccn2)CCN(Cc2cccc(Oc3ccccc3)c2)C1 (racemic) [Example 12] ), measured pIC50 is 6.64

For this molecule ( COCCNC(=O)C1(C)CCN(Cc2cccc(Oc3ccccc3)c2)C1 (stereo not shown) [Example 2] ), measured pIC50 is 6.00

For this molecule ( CC1(C(=O)N2CCc3cccnc3C2)CCN(Cc2cccc(Oc3ccccc3)c2)C1 (racemic) [Example 32] ), measured pIC50 is 5.78

* * *

TARGET DESC: human Nav1.6 ion channels (Homo sapiens, UniProt Q9UQD0)
Construct: host or cells: CHO
Sequence (Q9UQD0 whole entry): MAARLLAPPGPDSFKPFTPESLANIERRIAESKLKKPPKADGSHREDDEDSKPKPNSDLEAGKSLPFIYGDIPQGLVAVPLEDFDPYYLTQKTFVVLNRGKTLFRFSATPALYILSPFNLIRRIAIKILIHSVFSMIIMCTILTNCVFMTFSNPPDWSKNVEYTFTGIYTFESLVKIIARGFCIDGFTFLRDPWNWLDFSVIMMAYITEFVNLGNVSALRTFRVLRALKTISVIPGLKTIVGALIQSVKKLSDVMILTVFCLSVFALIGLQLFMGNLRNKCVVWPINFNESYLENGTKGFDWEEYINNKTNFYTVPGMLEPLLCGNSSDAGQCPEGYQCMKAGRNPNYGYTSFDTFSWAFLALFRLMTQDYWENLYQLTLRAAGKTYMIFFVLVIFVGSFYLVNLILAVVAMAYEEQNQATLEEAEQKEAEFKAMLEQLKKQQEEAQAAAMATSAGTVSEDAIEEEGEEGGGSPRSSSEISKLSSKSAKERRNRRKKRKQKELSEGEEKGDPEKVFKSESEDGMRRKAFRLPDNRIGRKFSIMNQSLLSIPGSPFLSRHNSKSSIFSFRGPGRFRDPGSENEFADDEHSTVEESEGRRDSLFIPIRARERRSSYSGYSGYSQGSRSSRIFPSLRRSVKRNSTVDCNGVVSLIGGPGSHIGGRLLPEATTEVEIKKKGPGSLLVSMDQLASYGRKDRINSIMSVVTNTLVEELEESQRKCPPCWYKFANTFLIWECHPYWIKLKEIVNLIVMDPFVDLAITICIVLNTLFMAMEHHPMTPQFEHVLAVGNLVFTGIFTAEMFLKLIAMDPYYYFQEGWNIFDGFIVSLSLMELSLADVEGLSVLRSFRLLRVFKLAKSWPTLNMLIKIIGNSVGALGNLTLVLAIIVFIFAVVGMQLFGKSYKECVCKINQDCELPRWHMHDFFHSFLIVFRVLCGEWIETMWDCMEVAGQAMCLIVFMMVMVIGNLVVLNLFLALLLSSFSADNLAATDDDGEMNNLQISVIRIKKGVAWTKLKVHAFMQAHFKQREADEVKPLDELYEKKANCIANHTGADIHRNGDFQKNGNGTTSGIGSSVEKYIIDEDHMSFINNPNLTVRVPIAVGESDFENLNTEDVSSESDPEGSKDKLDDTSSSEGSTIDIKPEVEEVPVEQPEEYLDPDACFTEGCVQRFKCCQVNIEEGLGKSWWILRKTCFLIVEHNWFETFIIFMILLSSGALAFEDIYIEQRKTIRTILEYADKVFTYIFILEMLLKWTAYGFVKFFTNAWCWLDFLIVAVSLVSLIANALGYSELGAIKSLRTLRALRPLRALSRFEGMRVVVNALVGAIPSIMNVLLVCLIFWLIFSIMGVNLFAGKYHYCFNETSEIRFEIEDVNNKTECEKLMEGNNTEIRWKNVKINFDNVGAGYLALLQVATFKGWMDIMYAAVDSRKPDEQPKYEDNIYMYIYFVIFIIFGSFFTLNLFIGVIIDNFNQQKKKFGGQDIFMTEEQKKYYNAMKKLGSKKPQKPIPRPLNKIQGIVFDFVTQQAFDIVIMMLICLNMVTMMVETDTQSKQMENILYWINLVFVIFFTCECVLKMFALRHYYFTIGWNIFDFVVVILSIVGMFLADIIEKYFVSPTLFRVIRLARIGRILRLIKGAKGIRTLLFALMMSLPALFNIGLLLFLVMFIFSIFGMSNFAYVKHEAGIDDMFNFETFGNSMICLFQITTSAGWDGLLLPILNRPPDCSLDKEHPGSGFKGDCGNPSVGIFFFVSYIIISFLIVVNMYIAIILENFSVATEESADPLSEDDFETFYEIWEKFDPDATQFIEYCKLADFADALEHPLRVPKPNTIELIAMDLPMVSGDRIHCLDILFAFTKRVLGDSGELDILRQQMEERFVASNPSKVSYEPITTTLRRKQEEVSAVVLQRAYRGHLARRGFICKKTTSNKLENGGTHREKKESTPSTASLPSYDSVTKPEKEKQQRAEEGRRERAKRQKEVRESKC
ASSAY METHOD TEXT: IonWorks electrophysiological assay on CHO cells expressing human Nav1.6
Assay type: cell-based
CONDITION PARAMETERS: inactivated state inhibition (Pulse 2), CHO human Nav1.6 expressing cells, read-out: Nav1.6 Inactivated
Please go through the items and note down their IC50.
Numeric answer only, unit nM assumed.

For this molecule ( CC1(C(=O)NCc2cccnc2)CCN(Cc2cccc(Oc3ccccc3)c2)C1 (racemic) ), measured IC50 is 409

For this molecule ( CCCNC(=O)C1(C)CCN(Cc2ccc(OC)c3ccccc23)C1 (centres unmarked) ), measured IC50 is 1860

For this molecule ( CCNC(=O)[C@]1(C)CCN(Cc2cccc(Oc3ccccc3)c2)C1 (single isomer, unassigned) ), measured IC50 is 825

For this molecule ( CCNC(=O)C1(C)CCN(Cc2ccc(-c3ccccc3)cc2)C1 (centres unmarked) ), measured IC50 is 1770

For this molecule ( O=C(NCCc1ccccn1)C1CCN(Cc2cccc(Oc3ccccc3)c2)C1 (racemic) ), measured IC50 is 1170

For this molecule ( Cc1ccccc1CNC(=O)C1(C)CCN(Cc2cccc(Oc3ccccc3)c2)C1 (racemic) ), measured IC50 is 615

For this molecule ( CC1(C(=O)N2Cc3cccnc3C2)CCN(Cc2cccc(Oc3ccccc3)c2)C1 (racemic) ), measured IC50 is 1740

For this molecule ( CC1(C(=O)NCCc2ccccn2)CCN(Cc2cccc(Oc3ccccc3)c2)C1 (racemic) ), measured IC50 is 771

* * *

TARGET DESC: human Nav1.6 ion channels (Homo sapiens)
Construct: host or cells: CHO
ASSAY METHOD TEXT: IonWorks electrophysiological assay on CHO cells expressing human Nav1.6
Format: cell-based
CONDITION PARAMETERS: closed (tonic) state inhibition (Pulse 1), CHO human Nav1.6 expressing cells, read-out: Nav1.6 Tonic
READOUT: IC50 (µM)
Numeric answer only, unit µM assumed.

For this compound ( CN(Cc1ccccn1)C(=O)C1(C)CCN(Cc2cccc(Oc3ccccc3)c2)C1 (racemic) ), measured IC50 is 30.3

For this compound ( COCCNC(=O)C1(C)CCN(Cc2cccc(Oc3ccccc3)c2)C1 (centres unmarked) ), measured IC50 is 15.5

For this compound ( COCCNC(=O)C1CCN(Cc2cccc(Oc3ccccc3)c2)C1 (racemic) ), measured IC50 is 30.3

For this compound ( CC1(C(=O)NCCc2ccccn2)CCN(Cc2cccc(Oc3ccccc3)c2)C1 (racemic) ), measured IC50 is 10.6

For this compound ( CCNC(=O)C1CCN(Cc2cccc(Oc3ccccc3)c2)C1 (racemic) ), measured IC50 is 23.1

For this compound ( O=C(NCCc1ccccn1)C1CCN(Cc2cccc(Oc3ccccc3)c2)C1 (racemic) ), measured IC50 is 19.6

For this compound ( CCNC(=O)C1(C)CCN(Cc2ccc(-c3ccccc3)cc2)C1 (centres unmarked) ), measured IC50 is 21.4

For this compound ( CC1(C(=O)NCc2cccnc2)CCN(Cc2cccc(Oc3ccccc3)c2)C1 (racemic) ), measured IC50 is 13.1

For this compound ( CN1CCN(C(=O)C2(C)CCN(Cc3cccc(Oc4ccccc4)c3)C2)CC1 (racemic) ), measured IC50 is 8.94

For this compound ( Cc1ccccc1CNC(=O)C1(C)CCN(Cc2cccc(Oc3ccccc3)c2)C1 (racemic) ), measured IC50 is 14.1

For this compound ( CC(C)COc1cccc(CN2CCC(C)(C(=O)N(C)Cc3ccccn3)C2)c1 (racemic) ), measured IC50 is 19.9

For this compound ( CCCNC(=O)C1(C)CCN(Cc2cccc(Oc3ccccc3)c2)C1 (centres unmarked) ), measured IC50 is 9.42
